Parameter EC50: see the listing below.
- Assay System: human toll like receptor 7 (hTLR7) (Homo sapiens, UniProt Q9NYK1)
- Sequence (Q9NYK1 27-1049): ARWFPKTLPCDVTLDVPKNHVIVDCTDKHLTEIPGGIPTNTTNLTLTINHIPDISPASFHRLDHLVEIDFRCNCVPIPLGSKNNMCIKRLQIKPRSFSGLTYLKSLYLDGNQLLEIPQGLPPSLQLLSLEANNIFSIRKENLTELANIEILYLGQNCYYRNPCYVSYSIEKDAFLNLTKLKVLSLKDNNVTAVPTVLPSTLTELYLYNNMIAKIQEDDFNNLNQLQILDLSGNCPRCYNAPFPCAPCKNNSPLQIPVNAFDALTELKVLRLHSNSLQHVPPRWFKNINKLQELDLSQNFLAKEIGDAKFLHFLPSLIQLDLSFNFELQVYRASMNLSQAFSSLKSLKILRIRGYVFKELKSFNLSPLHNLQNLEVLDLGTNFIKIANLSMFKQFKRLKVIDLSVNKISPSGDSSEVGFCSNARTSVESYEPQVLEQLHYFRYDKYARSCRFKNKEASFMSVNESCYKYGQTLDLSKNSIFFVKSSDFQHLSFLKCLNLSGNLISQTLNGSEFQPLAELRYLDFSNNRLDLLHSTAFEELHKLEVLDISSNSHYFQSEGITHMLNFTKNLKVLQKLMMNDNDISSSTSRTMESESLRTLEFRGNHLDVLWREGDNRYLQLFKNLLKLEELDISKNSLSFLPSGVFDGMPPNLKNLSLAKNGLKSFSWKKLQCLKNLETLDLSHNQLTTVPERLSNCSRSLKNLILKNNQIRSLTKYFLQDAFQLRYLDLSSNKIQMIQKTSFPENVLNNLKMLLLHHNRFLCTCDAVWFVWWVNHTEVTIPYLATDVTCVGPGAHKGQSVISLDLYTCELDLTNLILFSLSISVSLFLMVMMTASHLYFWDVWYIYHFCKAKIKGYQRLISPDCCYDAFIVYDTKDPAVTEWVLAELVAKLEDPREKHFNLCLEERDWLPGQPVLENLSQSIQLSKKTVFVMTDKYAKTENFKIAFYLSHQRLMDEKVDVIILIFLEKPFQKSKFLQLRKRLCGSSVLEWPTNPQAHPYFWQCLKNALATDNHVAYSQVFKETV
- Protocol Text: hTLR7 in-vitro functional assay (HEK-Blue hTLR7 SEAP reporter)
- Condition Details: HEK-Blue hTLR7 cells, overnight incubation
Please state the figure in nM; there is no need to write the unit.

Worked cases, EC50 given:
Smiles Notation	Unit Spec	EC50
CCCCc1nc2c(N)nc3cc(CCCN4CCN(C(=O)CCOCCOCCOCCOCCOCCOCCOCCOCCOCCOCCOCCOCCNC(=O)O[C@H]5CC[C@@]6(C)C(=CC[C@H]7[C@@H]8CC[C@H]([C@H](C)CCCC(C)C)[C@@]8(C)CC[C@@H]76)C5)CC4)ccc3c2n1CC(C)(CO)CO	nM	443
CCCCc1nc2c(N)nc3cc(CCCN4CCN(Cc5ccc(NC(=O)[C@H](C)NC(=O)[C@@H](NC(=O)COCCOCCNC(=O)O[C@H]6CC[C@@]7(C)C(=CC[C@H]8[C@@H]9CC[C@H]([C@H](C)CCCC(C)C)[C@@]9(C)CC[C@@H]87)C6)C(C)C)cc5)CC4)ccc3c2n1CC(C)(CO)CO	nM	3100

Using known records, supply EC50 for CCCCc1nc2c(N)nc3cc(CCCN4CCN(CCCOCCOCCOCCOCCOCCOCCOCCOCCOCCOCCOCCOCCOCCOCCOCCOCCNC(=O)O[C@H]5CC[C@@]6(C)C(=CC[C@H]7[C@@H]8CC[C@H]([C@H](C)CCCC(C)C)[C@@]8(C)CC[C@@H]76)C5)CC4)ccc3c2n1CC(C)(CO)CO
236

----------
- Protocol Text: Lymph node localization of AMP adjuvants in female BALB/c mice (LC-MS)
- Format: in vivo
- Condition Details: mouse, inguinal lymph node, 2 nmol intramuscular, 48 h post injection, read-out: concentration in the inguinal lymph node
Value Kind: concentration at 48 h
State the value with its unit after it.

Using known records, supply concentration at 48 h for CCCCc1nc2c(N)nc3cc(CCCN4CCN(C(=O)CCOCCOCCOCCOCCOCCOCCOCCOCCOCCOCCOCCOCCOCCOCCOCCOCCOCCOCCOCCOCCOCCOCCOCCOCCNC(=O)CCOCCOCCOCCOCCNC(=O)CCCOc5c(C)c(C)c6c(c5C)CC[C@@](C)(CCC[C@H](C)CCC[C@H](C)CCCC(C)C)O6)CC4)ccc3c2n1CC(C)(CO)CO
17000 ng/g

----------
Parameter EC50: see the listing below.
- Assay System: human toll like receptor 8 (hTLR8) (Homo sapiens)
- Sequence (Q9NR97 27-1041): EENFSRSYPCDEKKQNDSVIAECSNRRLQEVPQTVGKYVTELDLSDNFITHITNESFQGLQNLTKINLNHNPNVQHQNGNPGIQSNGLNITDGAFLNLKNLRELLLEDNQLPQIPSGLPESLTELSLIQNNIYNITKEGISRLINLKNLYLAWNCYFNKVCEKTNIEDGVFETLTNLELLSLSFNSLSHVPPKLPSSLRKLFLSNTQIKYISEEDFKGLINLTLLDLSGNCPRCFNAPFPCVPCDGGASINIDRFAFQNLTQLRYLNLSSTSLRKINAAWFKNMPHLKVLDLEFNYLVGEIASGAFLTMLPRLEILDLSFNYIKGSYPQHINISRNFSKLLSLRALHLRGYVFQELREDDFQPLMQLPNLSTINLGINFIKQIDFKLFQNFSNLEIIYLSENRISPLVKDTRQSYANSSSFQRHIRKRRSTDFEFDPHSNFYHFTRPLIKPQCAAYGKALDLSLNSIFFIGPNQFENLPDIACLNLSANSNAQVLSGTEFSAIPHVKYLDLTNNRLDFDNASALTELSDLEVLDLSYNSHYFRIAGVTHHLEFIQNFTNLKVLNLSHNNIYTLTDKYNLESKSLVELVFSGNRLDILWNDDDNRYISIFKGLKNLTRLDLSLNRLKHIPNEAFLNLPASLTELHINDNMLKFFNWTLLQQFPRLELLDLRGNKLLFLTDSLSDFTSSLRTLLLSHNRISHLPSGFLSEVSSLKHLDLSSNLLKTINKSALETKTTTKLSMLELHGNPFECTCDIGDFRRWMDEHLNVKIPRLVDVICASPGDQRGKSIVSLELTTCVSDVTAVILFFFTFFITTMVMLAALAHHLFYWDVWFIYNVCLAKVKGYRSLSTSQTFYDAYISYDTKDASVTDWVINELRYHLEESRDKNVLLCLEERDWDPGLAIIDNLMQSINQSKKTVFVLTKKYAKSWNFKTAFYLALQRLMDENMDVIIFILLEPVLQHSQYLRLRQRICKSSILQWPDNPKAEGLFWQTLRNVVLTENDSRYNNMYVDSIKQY
- Protocol Text: hTLR8 in-vitro functional assay (HEK-Blue hTLR8 SEAP reporter)
- Condition Details: HEK-Blue hTLR8 cells, overnight incubation
- Method: To determine the ability of test compounds to activate the human toll like receptor 7 (hTLR7) or human toll like receptor 8 (hTLR8), cell-based reporter systems were utilized. […] Stimulation of hTLR7 or hTLR8 in these cells activates NF-kB and AP-1 and induces the production of SEAP which can be quantified using an alkaline phosphatase detection reagent. […] Using Positive (tool compound) and Negative (DMSO) controls, the percent (%) effect was calculated for each sample using the following equation: […]
Please state the figure in nM; there is no need to write the unit.

Worked cases, EC50 given:
Smiles Notation	Unit Spec	EC50
CCCCc1nc2c(N)nc3cc(CCCN4CCN(Cc5ccc(NC(=O)[C@H](C)NC(=O)[C@@H](NC(=O)COCCOCCNC(=O)O[C@H]6CC[C@@]7(C)C(=CC[C@H]8[C@@H]9CC[C@H]([C@H](C)CCCC(C)C)[C@@]9(C)CC[C@@H]87)C6)C(C)C)cc5)CC4)ccc3c2n1CC(C)(CO)CO	nM	2970
CCOCc1nc2c(N)nc3cc(CCCN4CCN(C(=O)CCOCCOCCOCCOCCOCCOCCOCCOCCOCCOCCOCCOCCOCCOCCOCCOCCOCCOCCOCCOCCOCCOCCOCCOCCOCCOCCOCCOCCOCCOCCOCCOCCOCCOCCOCCOCCNC(=O)CCOCCOCCOCCOCCNC(=O)O[C@H]5CC[C@@]6(C)C(=CC[C@H]7[C@@H]8CC[C@H]([C@H](C)CCCC(C)C)[C@@]8(C)CC[C@@H]76)C5)CC4)ccc3c2n1CC(C)(CO)CO	nM	1750
CCOCc1nc2c(N)nc3cc(CCCN4CCN(C(=O)CCOCCOCCOCCOCCOCCOCCOCCOCCOCCOCCOCCOCCNC(=O)CCOCCOCCOCCOCCNC(=O)O[C@H]5CC[C@@]6(C)C(=CC[C@H]7[C@@H]8CC[C@H]([C@H](C)CCCC(C)C)[C@@]8(C)CC[C@@H]76)C5)CC4)ccc3c2n1CC(C)(CO)CO	nM	3330
CCCCc1nc2c(N)nc3cc(CCCN4CCN(C(=O)CCOCCOCCOCCOCCOCCOCCOCCOCCOCCOCCOCCOCCOCCOCCOCCOCCOCCOCCOCCOCCOCCOCCOCCOCCNC(=O)CCOCCOCCOCCOCCNC(=O)CCCOc5c(C)c(C)c6c(c5C)CC[C@@](C)(CCC[C@H](C)CCC[C@H](C)CCCC(C)C)O6)CC4)ccc3c2n1CC(C)(CO)CO	nM	5030

API: the following record is the query input.
Print human toll like receptor 8 (hTLR8) (Homo sapiens) EC50 for CCCCc1nc2c(N)nc3cc(CCCN4CCN(CCCOCCOCCOCCOCCOCCOCCOCCOCCOCCOCCOCCOCCOCCOCCOCCOCCOCCOCCOCCOCCOCCOCCOCCOCCNC(=O)CCOCCOCCOCCOCCNC(=O)O[C@H]5CC[C@@]6(C)C(=CC[C@H]7[C@@H]8CC[C@H]([C@H](C)CCCC(C)C)[C@@]8(C)CC[C@@H]76)C5)CC4)ccc3c2n1CC(C)(CO)CO .
2610
